Documented inhibition in vivo at 1 mg/kg across a set of molecules
# SYSTEM TESTED: isomerase (Mus musculus, UniProt Q91ZQ5)
# Construct: The recovery of 11-cis-retinal after bleaching can be used to estimate the activity of isomerase in vivo; from tissue; host or cells: eyes of living CD-1 and Balb/c male mice
# Sequence (Q91ZQ5 whole entry): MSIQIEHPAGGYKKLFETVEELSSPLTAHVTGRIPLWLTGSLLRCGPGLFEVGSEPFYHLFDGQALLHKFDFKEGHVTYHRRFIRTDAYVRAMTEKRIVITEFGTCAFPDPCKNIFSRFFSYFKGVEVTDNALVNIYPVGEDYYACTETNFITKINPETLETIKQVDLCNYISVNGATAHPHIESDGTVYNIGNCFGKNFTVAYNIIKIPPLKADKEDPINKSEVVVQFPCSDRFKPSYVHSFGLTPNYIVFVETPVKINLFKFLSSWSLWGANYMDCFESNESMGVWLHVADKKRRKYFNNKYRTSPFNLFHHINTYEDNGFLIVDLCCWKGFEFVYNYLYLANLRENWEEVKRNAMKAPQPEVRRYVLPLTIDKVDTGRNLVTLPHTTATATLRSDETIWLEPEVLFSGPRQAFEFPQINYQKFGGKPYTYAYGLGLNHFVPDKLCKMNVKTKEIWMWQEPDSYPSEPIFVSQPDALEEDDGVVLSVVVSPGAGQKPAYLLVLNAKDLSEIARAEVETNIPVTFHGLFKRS
# ASSAY DETAILS: In vivo murine isomerase assay (recovery of 11-cis-retinal after photobleaching)
# Design: species or system mice
# ASSAY CONDITIONS: mouse; 1 mg/kg, 4 h; read-out: % Inibition
Your answer should be a plain number; it is taken to be in %.

Example cases with answers are listed next.
{"columns": ["MOLECULE", "SYSTEM TESTED", "UNIT NAME", "inhibition in vivo at 1 mg/kg"],
 "data": [
  ["NCCOc1cccc(C#Cc2ccccc2)c1 [Example 81, 2-(3-(Phenylethynyl)phenoxy)-ethanamine]", "isomerase (Mus musculus, UniProt Q91ZQ5)", "%", 8],
  ["CCC(O)(C#Cc1cccc(CCCN)c1)CC [Example 1]", "isomerase (Mus musculus, UniProt Q91ZQ5)", "%", 3],
  ["NCCOc1cccc(C#CC2(O)CCCCCC2)c1 [Example 78]", "isomerase (Mus musculus, UniProt Q91ZQ5)", "%", 0],
  ["CCC(O)(C#Cc1cccc(OCCN)c1)CC [Example 27]", "isomerase (Mus musculus, UniProt Q91ZQ5)", "%", 7]
]}

molecule NCCCc1cccc(C#Cc2ccccn2)c1 [Example 61] , inhibition in vivo at 1 mg/kg observed: 0

----------
Documented IC50 across a set of molecules
# SYSTEM TESTED: visual cycle isomerase (Bovine RPE microsome membranes) (Bos taurus, UniProt Q28175)
# Construct: Bovine Retinal Pigment Epithelium (RPE) microsome membranes were the source of a visual cycle isomerase; from tissue; host or cells: bovine retinal pigment epithelium microsome membranes
# Sequence (Q28175 2-533 limits assumed): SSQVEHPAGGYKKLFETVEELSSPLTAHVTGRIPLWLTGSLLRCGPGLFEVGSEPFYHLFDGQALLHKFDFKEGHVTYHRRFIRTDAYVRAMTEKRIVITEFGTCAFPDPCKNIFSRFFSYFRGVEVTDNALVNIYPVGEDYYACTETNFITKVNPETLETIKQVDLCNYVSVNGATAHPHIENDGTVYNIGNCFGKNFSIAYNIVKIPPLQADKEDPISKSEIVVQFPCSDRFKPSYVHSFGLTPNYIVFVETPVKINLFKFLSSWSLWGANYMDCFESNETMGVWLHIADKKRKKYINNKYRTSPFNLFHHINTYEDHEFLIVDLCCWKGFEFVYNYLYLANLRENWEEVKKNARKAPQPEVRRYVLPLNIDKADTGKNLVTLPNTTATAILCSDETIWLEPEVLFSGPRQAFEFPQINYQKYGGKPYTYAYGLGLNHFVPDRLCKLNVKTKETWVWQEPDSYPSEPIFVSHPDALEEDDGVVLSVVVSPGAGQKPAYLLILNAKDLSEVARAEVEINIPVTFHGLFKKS
# ASSAY DETAILS: In vitro isomerase inhibition assay, bovine RPE microsome membranes
# Assay type: biochemical
# ASSAY CONDITIONS: bovine RPE microsomes; 11-cis retinol formation

Example cases with answers are listed next.
{"columns": ["MOLECULE", "SYSTEM TESTED", "IC50"],
 "data": [
  ["NCCC(O)c1cccc(C#CC2(O)CCCCCC2)c1 (centres unmarked) [Example 59]", "visual cycle isomerase (Bovine RPE microsome membranes) (Bos taurus, UniProt Q28175)", "≤ 1 µM"],
  ["NCCC(O)c1cccc(C#CC2(O)CCCCC2)c1 (centres unmarked) [Example 99]", "visual cycle isomerase (Bovine RPE microsome membranes) (Bos taurus, UniProt Q28175)", "≤ 1 µM"],
  ["CC(C)(C)c1cc(C#Cc2cccc(CCCN)c2)cc(C(C)(C)C)c1 [Example 93]", "visual cycle isomerase (Bovine RPE microsome membranes) (Bos taurus, UniProt Q28175)", "≤ 1000 µM"],
  ["N#Cc1cccc(C#Cc2cccc(CCCN)c2)c1 [Example 90]", "visual cycle isomerase (Bovine RPE microsome membranes) (Bos taurus, UniProt Q28175)", "≤ 10 µM"],
  ["CSc1ccc(C#Cc2cccc(CCCN)c2)cc1 [Example 94]", "visual cycle isomerase (Bovine RPE microsome membranes) (Bos taurus, UniProt Q28175)", "≤ 100 µM"],
  ["CCCC(O)(C#Cc1cccc(CC(C)(C)CN)c1)CCC [Example 20]", "visual cycle isomerase (Bovine RPE microsome membranes) (Bos taurus, UniProt Q28175)", "≤ 100 µM"],
  ["COCCCCC#Cc1cccc(CCCN)c1 [Example 67]", "visual cycle isomerase (Bovine RPE microsome membranes) (Bos taurus, UniProt Q28175)", "≤ 1 µM"],
  ["CCCCC#Cc1cccc(CCCN)c1 [Example 44, 3-(3-(Hex-1-ynyl)phenyl)propan-1-amine]", "visual cycle isomerase (Bovine RPE microsome membranes) (Bos taurus, UniProt Q28175)", "≤ 1 µM"]
]}

visual cycle isomerase (Bovine RPE microsome membranes) (Bos taurus, UniProt Q28175) assay, molecule Cc1ccc(C#Cc2cccc(CCCN)c2)cc1 [Example 84] , recorded IC50 = ≤ 100 µM

visual cycle isomerase (Bovine RPE microsome membranes) (Bos taurus, UniProt Q28175) assay, molecule NCCC(O)c1cccc(C#CCCc2ccccc2)c1 (centres unmarked) [Example 69] , recorded IC50 = ≤ 1 µM

visual cycle isomerase (Bovine RPE microsome membranes) (Bos taurus, UniProt Q28175) assay, molecule NCCCc1cccc(C#CCO)c1 [Example 10] , recorded IC50 = ≤ 100 µM

visual cycle isomerase (Bovine RPE microsome membranes) (Bos taurus, UniProt Q28175) assay, molecule NCCCc1cccc(C#Cc2ccccc2O)c1 [Example 89] , recorded IC50 = ≤ 10 µM

visual cycle isomerase (Bovine RPE microsome membranes) (Bos taurus, UniProt Q28175) assay, molecule NCCOc1cccc(C#Cc2ccsc2)c1 [Example 96] , recorded IC50 = ≤ 10 µM

visual cycle isomerase (Bovine RPE microsome membranes) (Bos taurus, UniProt Q28175) assay, molecule NCCCc1cccc(C#Cc2ccc3ccccc3c2)c1 [Example 45] , recorded IC50 = ≤ 1000 µM

visual cycle isomerase (Bovine RPE microsome membranes) (Bos taurus, UniProt Q28175) assay, molecule N#Cc1cccc(C#Cc2cccc(OCCN)c2)c1 [Example 88] , recorded IC50 = ≤ 10 µM

visual cycle isomerase (Bovine RPE microsome membranes) (Bos taurus, UniProt Q28175) assay, molecule COCC#Cc1cccc(CCCN)c1 [Example 9] , recorded IC50 = ≤ 10 µM

visual cycle isomerase (Bovine RPE microsome membranes) (Bos taurus, UniProt Q28175) assay, molecule CCCC(C#Cc1cccc(CCCN)c1)(CCC)OC [Example 4] , recorded IC50 = ≤ 1 µM

----------
# SYSTEM TESTED: isomerase (Mus musculus, UniProt Q91ZQ5)
# Construct: The recovery of 11-cis-retinal after bleaching can be used to estimate the activity of isomerase in vivo; from tissue; host or cells: eyes of living CD-1 and Balb/c male mice
# ASSAY DETAILS: In vivo murine isomerase assay (recovery of 11-cis-retinal after photobleaching)
# Design: species or system mice
# ASSAY CONDITIONS: mouse; 1 mg/kg, 4 h; read-out: % Inibition
Documented inhibition in vivo at 1 mg/kg across a set of compounds
Your answer should be a plain number; it is taken to be in %.

Example cases with answers are listed next.
{"columns": ["COMPOUND", "SYSTEM TESTED", "RESULT VALUE"],
 "data": [
  ["NCCC(O)c1cccc(C#CCCc2ccccc2)c1 (stereo not drawn)", "isomerase (Mus musculus, UniProt Q91ZQ5)", 81],
  ["NCCCc1cccc(C#CC2(O)CCCCC2)c1", "isomerase (Mus musculus, UniProt Q91ZQ5)", 0]
]}

compound NCCOc1cccc(C#CC2CCCCC2)c1 , inhibition in vivo at 1 mg/kg observed: 22

----------
# SYSTEM TESTED: visual cycle isomerase (Bovine RPE microsome membranes) (Bos taurus, UniProt Q28175)
# Construct: Bovine Retinal Pigment Epithelium (RPE) microsome membranes were the source of a visual cycle isomerase; from tissue; host or cells: bovine retinal pigment epithelium microsome membranes
# ASSAY DETAILS: In vitro isomerase inhibition assay, bovine RPE microsome membranes
# Assay type: biochemical
# ASSAY CONDITIONS: bovine RPE microsomes; 11-cis retinol formation
PROPERTY MEASURED: IC50

Example cases with answers are listed next.
{"columns": ["COMPOUND", "SYSTEM TESTED", "IC50"],
 "data": [
  ["NCCCc1cccc(C#Cc2ccccc2)c1", "visual cycle isomerase (Bovine RPE microsome membranes) (Bos taurus, UniProt Q28175)", "≤ 1 µM"],
  ["CCCCC(O)(C#Cc1cccc(OCCN)c1)CCCC", "visual cycle isomerase (Bovine RPE microsome membranes) (Bos taurus, UniProt Q28175)", "≤ 1 µM"],
  ["NCCCc1cccc(C#CCCCCO)c1", "visual cycle isomerase (Bovine RPE microsome membranes) (Bos taurus, UniProt Q28175)", "≤ 1 µM"]
]}

compound CC(C)C(O)(C#Cc1cccc(CCCN)c1)C(C)C , IC50 observed: ≤ 1 µM

compound CC(O)(C#Cc1cccc(CCCN)c1)c1ccccc1 (centres unmarked) , IC50 observed: ≤ 1 µM

compound NCCOc1cccc(C#CC2(O)CCOCC2)c1 , IC50 observed: ≤ 10 µM

compound CC(C)(C)C(O)(C#Cc1cccc(CCCN)c1)C(C)(C)C , IC50 observed: ≤ 10 µM

compound NCCCc1cccc(C#Cc2ccsc2)c1 , IC50 observed: ≤ 10 µM

compound NCCOc1cccc(C#CC2(O)CCCCC2)c1 , IC50 observed: ≤ 1 µM

compound CC(=O)NCCCc1cccc(C#CC2(O)CCCCC2)c1 , IC50 observed: ≤ 10 µM

compound CC(C)CC(C)(O)C#Cc1cccc(CCCN)c1 (centres unmarked) , IC50 observed: ≤ 1 µM
